Reported fraction unbound at 2 h, 2 μM values for a set of compounds
- Test system: melanin
- EXPERIMENTAL DETAILS: Binding capacity of compounds to melanin
- Format: in vitro ADME
- ASSAY CONTEXT: Sepia officinalis (cuttlefish), melanin suspension (1 mg/mL); 1 mg/mL melanin suspension in PBS pH 7.4, 2 μM compound, 2 h at 37° C.; read-out: Fu % (percentage of free drug, not bound to melanin)

> print(dat)
                                   compound                  assay.readout      observed
1  O=C(NC1CC1)c1ccccc1Sc1ccc2c(/C=C/c3cccc(CN4CCCC4)n3)n[nH]c2c1 [Compound I-117]  fraction unbound at 2 h, 2 μM  0.01 to 0.05

Proceeding to the next compound to report its fraction unbound at 2 h, 2 μM.
Qu. Write down fraction unbound at 2 h, 2 μM measured for item CNC(=O)c1ccccc1Sc1ccc2c(NC(=O)NCCN3CCN(C)CC3)n[nH]c2c1 [Compound I-31]
Ans. 0.01 to 0.05

###

- MEASURED TARGET: FLT1 (VEGFR1) (Homo sapiens (Human))
- Sequence (P17948 27-1338): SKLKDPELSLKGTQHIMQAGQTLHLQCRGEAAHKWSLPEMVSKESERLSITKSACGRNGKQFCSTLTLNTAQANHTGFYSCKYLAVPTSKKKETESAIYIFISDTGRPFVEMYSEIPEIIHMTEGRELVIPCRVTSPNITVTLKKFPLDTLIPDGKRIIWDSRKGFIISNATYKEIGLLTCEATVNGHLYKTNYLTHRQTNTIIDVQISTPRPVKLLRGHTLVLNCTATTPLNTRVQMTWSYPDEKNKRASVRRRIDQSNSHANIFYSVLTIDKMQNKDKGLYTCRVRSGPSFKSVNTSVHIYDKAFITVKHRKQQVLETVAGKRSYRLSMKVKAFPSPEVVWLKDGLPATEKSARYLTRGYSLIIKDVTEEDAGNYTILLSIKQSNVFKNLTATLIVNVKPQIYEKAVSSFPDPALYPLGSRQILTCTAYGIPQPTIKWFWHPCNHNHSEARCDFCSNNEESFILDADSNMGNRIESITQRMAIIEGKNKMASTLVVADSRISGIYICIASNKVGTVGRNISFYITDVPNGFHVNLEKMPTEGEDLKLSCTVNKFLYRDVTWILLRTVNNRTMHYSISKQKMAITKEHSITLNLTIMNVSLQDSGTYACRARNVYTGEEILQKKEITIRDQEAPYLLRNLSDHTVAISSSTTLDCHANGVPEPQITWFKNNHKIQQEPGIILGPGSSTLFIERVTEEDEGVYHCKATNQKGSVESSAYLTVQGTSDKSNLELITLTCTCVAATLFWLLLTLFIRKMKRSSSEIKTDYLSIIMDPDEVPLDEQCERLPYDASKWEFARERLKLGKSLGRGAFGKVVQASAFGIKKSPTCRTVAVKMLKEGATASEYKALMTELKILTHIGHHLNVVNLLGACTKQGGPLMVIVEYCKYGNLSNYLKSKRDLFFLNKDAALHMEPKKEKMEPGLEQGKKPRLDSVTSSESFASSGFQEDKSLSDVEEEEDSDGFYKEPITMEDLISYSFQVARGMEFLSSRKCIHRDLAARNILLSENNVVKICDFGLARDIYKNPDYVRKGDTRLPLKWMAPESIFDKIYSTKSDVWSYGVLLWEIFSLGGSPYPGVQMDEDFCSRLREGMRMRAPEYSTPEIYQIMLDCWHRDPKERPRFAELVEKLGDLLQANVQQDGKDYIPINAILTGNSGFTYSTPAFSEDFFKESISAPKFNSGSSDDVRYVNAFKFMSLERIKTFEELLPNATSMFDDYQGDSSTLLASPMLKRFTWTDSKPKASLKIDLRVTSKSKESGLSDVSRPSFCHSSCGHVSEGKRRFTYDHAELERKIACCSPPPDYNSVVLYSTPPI
- EXPERIMENTAL DETAILS: Kinase inhibition, Mobility Shift Assay (VEGFR1)
- Type: biochemical
Recorded IC50 by entry

Please review the entries below; each comes with its answer.
> print(dat)
                               smiles.entry      observed
1  CNC(=O)c1ccccc1Sc1ccc2c(C#Cc3cc(OCCN4CCCC4)ccn3)n[nH]c2c1  10 to 100 nM
2  CNC(=O)c1ccccc1Sc1ccc2c(/C=C/c3ccc(OCCN4CCN(C)CC4)cn3)n[nH]c2c1        ≤ 1 nM
3  CNC(=O)c1c(F)cccc1Sc1ccc2c(/C=C/c3ccc(OCCN4CCCC4)cn3)n[nH]c2c1      > 100 nM
4  O=C(NC1CC1)c1cc(F)ccc1Sc1ccc2c(/C=C/c3cc(OCCN4CCCC4)ccn3)n[nH]c2c1  10 to 100 nM
5  CNC(=O)c1ccccc1Sc1ccc2c(/C=C/c3ccccn3)ncn2c1      > 100 nM
6  CNC(=O)c1ccccc1Sc1ccc2c(C#Cc3cccc(OCCN4CCCC4)n3)n[nH]c2c1  10 to 100 nM
7  CNC(=O)c1ccccc1Sc1ccc2c(/C=C/c3ccnn3CCN3CCCC3)n[nH]c2c1  10 to 100 nM
8  CNC(=O)c1ccccc1Sc1ccc2c(/C=C/c3cccc(OCCN4CCCC4)n3)n[nH]c2c1    1 to 10 nM
9  CN1CCN(c2ccc(/C=C/c3n[nH]c4cc(Sc5ccccc5C(=O)NC5CC5)ccc34)nc2)CC1        ≤ 1 nM

Proceed to the following item.
Qu. Provide only the value of recorded IC50 for CNC(=O)c1ccccc1Sc1ccc2c(/C=C/c3ccc(OCCN4CCCC4)nc3)n[nH]c2c1
Ans. 1 to 10 nM

###

- MEASURED TARGET: KDR (VEGFR2) (Homo sapiens (Human))
- Sequence (P35968 790-1356): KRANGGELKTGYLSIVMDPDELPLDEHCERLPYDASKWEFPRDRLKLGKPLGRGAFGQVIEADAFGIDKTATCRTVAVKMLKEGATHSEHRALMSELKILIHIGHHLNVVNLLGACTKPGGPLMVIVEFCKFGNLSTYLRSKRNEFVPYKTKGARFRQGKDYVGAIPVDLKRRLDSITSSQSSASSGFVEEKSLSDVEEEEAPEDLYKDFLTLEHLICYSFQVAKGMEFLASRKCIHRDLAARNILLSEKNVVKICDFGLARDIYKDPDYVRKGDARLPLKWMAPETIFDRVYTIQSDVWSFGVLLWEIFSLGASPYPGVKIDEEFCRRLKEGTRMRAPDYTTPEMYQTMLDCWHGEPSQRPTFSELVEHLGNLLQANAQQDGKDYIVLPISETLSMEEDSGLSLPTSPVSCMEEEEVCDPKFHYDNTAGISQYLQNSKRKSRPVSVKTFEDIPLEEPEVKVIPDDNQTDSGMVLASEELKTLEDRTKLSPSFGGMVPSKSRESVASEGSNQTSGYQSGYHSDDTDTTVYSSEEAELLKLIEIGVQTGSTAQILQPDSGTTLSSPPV
- EXPERIMENTAL DETAILS: Kinase inhibition, Mobility Shift Assay (VEGFR2)
- Assay type: biochemical
ASSAY READOUT: IC50

> print(dat)
                               smiles.entry      observed
1  O=C(NC1CC1)c1cccc(F)c1Sc1ccc2c(/C=C/c3ccn(CCN4CCCC4)n3)n[nH]c2c1  10 to 100 nM
2  CCNC(=O)c1cccc(F)c1Sc1ccc2c(/C=C/c3ccc(CN(CC)CC)cn3)n[nH]c2c1    1 to 10 nM
3  CNC(=O)c1ccccc1Sc1ccc2c(Nc3ccc(OCCN4CCCC4)cn3)n[nH]c2c1      > 100 nM

Qu. Return IC50 (reported value) for this compound: CNC(=O)c1ccccc1Sc1ccc2c(/C=C/c3cccc(OCCN4CCCC4)n3)n[nH]c2c1
Ans. 1 to 10 nM

###

# Lookup of reported IC50 keyed by entry
- MEASURED TARGET: FLT4 (VEGFR3) (Homo sapiens (Human), UniProt P35916)
- Sequence (P35916 25-1363): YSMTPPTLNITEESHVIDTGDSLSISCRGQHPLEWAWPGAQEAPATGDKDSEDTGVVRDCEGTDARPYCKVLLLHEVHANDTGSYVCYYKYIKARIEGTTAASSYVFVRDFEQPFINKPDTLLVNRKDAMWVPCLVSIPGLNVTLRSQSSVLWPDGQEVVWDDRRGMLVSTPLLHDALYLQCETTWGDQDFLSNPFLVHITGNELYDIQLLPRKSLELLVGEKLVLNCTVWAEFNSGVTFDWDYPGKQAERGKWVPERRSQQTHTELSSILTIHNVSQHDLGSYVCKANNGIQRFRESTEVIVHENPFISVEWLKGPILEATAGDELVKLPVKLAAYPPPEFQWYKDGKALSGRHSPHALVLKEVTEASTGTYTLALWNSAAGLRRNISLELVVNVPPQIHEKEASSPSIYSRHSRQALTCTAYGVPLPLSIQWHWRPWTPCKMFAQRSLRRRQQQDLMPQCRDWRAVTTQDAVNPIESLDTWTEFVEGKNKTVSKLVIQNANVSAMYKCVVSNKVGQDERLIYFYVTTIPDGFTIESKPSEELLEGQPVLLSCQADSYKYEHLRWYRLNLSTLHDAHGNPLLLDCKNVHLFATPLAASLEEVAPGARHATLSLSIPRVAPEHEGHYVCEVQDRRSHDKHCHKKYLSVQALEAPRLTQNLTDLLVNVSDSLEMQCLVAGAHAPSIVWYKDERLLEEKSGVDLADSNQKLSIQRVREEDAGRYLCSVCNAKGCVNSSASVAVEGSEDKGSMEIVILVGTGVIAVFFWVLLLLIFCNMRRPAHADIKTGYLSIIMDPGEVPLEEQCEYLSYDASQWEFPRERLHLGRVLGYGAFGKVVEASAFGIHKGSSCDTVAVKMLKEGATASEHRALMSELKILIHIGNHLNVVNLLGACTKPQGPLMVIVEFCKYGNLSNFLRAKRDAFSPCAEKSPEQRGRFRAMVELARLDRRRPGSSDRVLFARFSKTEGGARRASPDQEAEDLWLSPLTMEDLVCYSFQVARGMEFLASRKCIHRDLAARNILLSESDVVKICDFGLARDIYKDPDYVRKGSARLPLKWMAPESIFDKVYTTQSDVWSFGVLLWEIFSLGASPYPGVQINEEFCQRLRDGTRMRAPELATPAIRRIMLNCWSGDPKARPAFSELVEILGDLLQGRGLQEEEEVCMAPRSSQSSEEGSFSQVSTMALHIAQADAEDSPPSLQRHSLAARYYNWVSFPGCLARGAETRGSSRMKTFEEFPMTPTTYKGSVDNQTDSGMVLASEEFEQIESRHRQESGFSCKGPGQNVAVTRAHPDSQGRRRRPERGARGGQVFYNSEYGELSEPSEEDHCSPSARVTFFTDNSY
- EXPERIMENTAL DETAILS: Kinase inhibition, Mobility Shift Assay (VEGFR3)
- Type: biochemical

Completed entries (count: 3):
> print(dat)
                               smiles.entry                           measured.target    observed
1  CNC(=O)c1cc(F)ccc1Sc1ccc2c(/C=C/c3ccc(OCCN4CCCC4)cn3)n[nH]c2c1  FLT4 (VEGFR3) (Homo sapiens (Human), UniProt P35916)  1 to 10 nM
2  CNC(=O)c1cccc(F)c1Sc1ccc2c(/C=C/c3ccc(OCCN4CCCC4)cn3)n[nH]c2c1  FLT4 (VEGFR3) (Homo sapiens (Human), UniProt P35916)  1 to 10 nM
3  O=C(NC1CC1)c1ccccc1Sc1ccc2c(/C=C/c3ccc(OCCN4CCCC4)cn3)n[nH]c2c1  FLT4 (VEGFR3) (Homo sapiens (Human), UniProt P35916)  1 to 10 nM

Qu. Complete the entry with IC50 for CNC(=O)c1ccccc1Sc1ccc2c(C#Cc3cc(OCCN4CCCC4)ccn3)n[nH]c2c1
Ans. > 100 nM

Qu. Supply measured IC50 of CNC(=O)c1ccccc1Sc1ccc2c(/C=C/c3ccc(OC[C@@H]4CCN(C)C4)cn3)n[nH]c2c1 in your reply.
Ans. 1 to 10 nM

Qu. In one line, give reported IC50 of the entry O=C(NC1CC1)c1ccccc1Sc1ccc2c(/C=C/c3cc(CN4CCCC4)ccn3)n[nH]c2c1 .
Ans. 10 to 100 nM

Qu. Assign IC50 to the following record: CNC(=O)c1ccccc1Sc1cnc2c(/C=C/c3ccccn3)n[nH]c2c1
Ans. 10 to 100 nM

###

Known IC50 of a selection of compounds
- MEASURED TARGET: EGFR (Homo sapiens (Human))
- EXPERIMENTAL DETAILS: Kinase inhibition, Mobility Shift Assay (EGFR)
- Type: biochemical

> print(dat)
                               smiles.entry          observed
1  CCN(CC)CCc1ccc(/C=C/c2n[nH]c3cc(Sc4ccc(F)cc4C(=O)NC4CC4)ccc23)nc1  6000 to 60000 nM
2  CCN(CC)Cc1ccc(/C=C/c2n[nH]c3cc(Sc4c(F)cccc4C(=O)NC)ccc23)nc1  6000 to 60000 nM
3  O=C(NC1CC1)c1ccccc1Sc1ccc2c(/C=C/c3cc(CN4CCCC4)ccn3)n[nH]c2c1  6000 to 60000 nM
4  CNC(=O)c1cc(F)ccc1Sc1ccc2c(/C=C/c3ccc(CN4CCCC4)cn3)n[nH]c2c1  6000 to 60000 nM
5  CNC(=O)c1ccccc1Sc1ccc2c(/C=C/c3cncc(OCCN4CCCC4)c3)n[nH]c2c1        > 60000 nM

Qu. Please report the measured IC50 for O=C(NC1CC1)c1cccc(F)c1Sc1ccc2c(/C=C/c3ccn(CCN4CCCC4)n3)n[nH]c2c1
Ans. 6000 to 60000 nM

###

- System: melanin
- EXPERIMENTAL DETAILS: Binding capacity of compounds to melanin
- Assay type: in vitro ADME
- ASSAY CONTEXT: Sepia officinalis (cuttlefish), melanin suspension (1 mg/mL); 1 mg/mL melanin suspension in PBS pH 7.4, 2 μM compound, 2 h at 37° C.; read-out: Fu % (percentage of free drug, not bound to melanin)
ASSAY READOUT: fraction unbound at 2 h, 2 μM

Past entries and their recorded results:
> print(dat)
                               smiles.entry      observed
1  O=C(NC1CC1)c1ccccc1Sc1ccc2c(/C=C/c3ccc(CCCN4CCCC4)cn3)n[nH]c2c1  0.01 to 0.05
2  CNC(=O)c1ccccc1Sc1ccc2c(/C=C/c3ccn(CCN4CCCC4)n3)n[nH]c2c1  0.01 to 0.05
3  O=C(NC1CC1)c1ccccc1Sc1ccc2c(/C=C/c3ccc(OCCN4CCCC4)cn3)n[nH]c2c1  0.01 to 0.05
4  CNC(=O)c1ccccc1Sc1ccc2c(/C=C/c3cccc(OCCN4CCCC4)n3)n[nH]c2c1  0.01 to 0.05
5  CCN(CC)Cc1ccc(/C=C/c2n[nH]c3cc(Sc4ccccc4C(=O)NCC(F)(F)F)ccc23)nc1        > 0.05

Qu. Query fraction unbound at 2 h, 2 μM for O=C(NC1CC1)c1cc(F)ccc1Sc1ccc2c(/C=C/c3cc(OCCN4CCCC4)ccn3)n[nH]c2c1
Ans. < 0.01

Qu. Answer with reported fraction unbound at 2 h, 2 μM of CNC(=O)c1cc(F)ccc1Sc1ccc2c(/C=C/c3cnn(CCCN4CCCC4)c3)n[nH]c2c1
Ans. > 0.05

###

- MEASURED TARGET: EGFR (Homo sapiens (Human), UniProt P00533)
- Sequence (P00533 25-1210): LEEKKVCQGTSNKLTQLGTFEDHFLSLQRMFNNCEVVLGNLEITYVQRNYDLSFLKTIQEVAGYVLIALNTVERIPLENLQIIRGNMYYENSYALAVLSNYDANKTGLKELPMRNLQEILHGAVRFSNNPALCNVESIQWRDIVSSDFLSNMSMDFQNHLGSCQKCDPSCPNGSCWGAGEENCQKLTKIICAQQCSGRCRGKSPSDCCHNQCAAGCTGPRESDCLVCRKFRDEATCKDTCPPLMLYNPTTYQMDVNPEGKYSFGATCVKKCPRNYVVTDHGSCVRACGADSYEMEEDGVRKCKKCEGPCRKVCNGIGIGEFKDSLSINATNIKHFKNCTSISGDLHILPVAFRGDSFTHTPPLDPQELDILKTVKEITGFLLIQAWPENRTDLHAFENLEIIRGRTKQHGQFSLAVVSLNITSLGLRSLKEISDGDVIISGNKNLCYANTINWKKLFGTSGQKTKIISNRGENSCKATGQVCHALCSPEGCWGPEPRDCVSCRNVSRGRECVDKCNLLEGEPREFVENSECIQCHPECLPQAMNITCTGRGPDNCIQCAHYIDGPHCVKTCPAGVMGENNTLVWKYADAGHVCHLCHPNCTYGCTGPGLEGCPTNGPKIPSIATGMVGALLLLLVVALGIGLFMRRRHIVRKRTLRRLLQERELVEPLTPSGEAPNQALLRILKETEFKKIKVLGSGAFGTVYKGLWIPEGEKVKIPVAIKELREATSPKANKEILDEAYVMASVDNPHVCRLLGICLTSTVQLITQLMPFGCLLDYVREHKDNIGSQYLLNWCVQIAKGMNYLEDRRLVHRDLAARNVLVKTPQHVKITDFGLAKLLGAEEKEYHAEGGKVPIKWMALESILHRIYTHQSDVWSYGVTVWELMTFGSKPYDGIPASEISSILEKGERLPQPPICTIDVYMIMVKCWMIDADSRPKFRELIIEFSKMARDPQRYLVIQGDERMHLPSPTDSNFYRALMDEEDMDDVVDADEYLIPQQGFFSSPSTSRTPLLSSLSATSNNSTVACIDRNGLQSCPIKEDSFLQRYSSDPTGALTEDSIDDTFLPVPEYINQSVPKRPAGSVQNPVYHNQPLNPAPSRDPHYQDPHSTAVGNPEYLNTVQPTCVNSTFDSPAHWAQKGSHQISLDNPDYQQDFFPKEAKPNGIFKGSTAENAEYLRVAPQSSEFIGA
- EXPERIMENTAL DETAILS: Kinase inhibition, Mobility Shift Assay (EGFR)
- Assay type: biochemical
ASSAY READOUT: IC50

Example entries begin here.
> print(dat)
                                   molecule          observed
1  CCN(CC)Cc1ccc(/C=C/c2n[nH]c3cc(Sc4ccccc4C(=O)NCC(F)F)ccc23)nc1 [Compound I-99]  6000 to 60000 nM
2  O=C(NC1CC1)c1cc(F)ccc1Sc1ccc2c(/C=C/c3ccc(CN4CCCC4)cn3)n[nH]c2c1 [Compound I-80]  6000 to 60000 nM
3  CNC(=O)c1ccccc1Sc1ccc2c(/C=C/c3ccn(CCCN4CCCC4)n3)n[nH]c2c1 [Compound I-11]  6000 to 60000 nM
4  O=C(NC1CC1)c1cccc(F)c1Sc1ccc2c(/C=C/c3cc(OCCN4CCCC4)ccn3)n[nH]c2c1 [Compound I-112]  6000 to 60000 nM
5  CNC(=O)c1ccccc1Sc1ccc2c(/C=C/c3ccc(OCC4CCCN4)cn3)n[nH]c2c1 (stereo not drawn) [Compound I-14]  6000 to 60000 nM
6  CNC(=O)c1ccccc1Sc1ccc2c(/C=C/c3ccc(CN4CCCC4)cn3)n[nH]c2c1 [Compound I-74]  6000 to 60000 nM
7  O=C(NC1CC1)c1ccccc1Sc1ccc2c(/C=C/c3cc(CCN4CCCC4)ccn3)n[nH]c2c1 [Compound I-133]        > 60000 nM
8  O=C(NC1CC1)c1cc(F)ccc1Sc1ccc2c(/C=C/c3cccc(CN4CCCC4)n3)n[nH]c2c1 [Compound I-138]        > 60000 nM

// switching to the query molecule
Qu. Provide measured IC50 on EGFR (Homo sapiens (Human), UniProt P00533) for CCN(CC)Cc1ccc(/C=C/c2n[nH]c3cc(Sc4ccc(F)cc4C(=O)NC)ccc23)nc1 [Compound I-93] please.
Ans. 6000 to 60000 nM
